test system: Zika virus NS2B-NS3 protease (linked construct); test: Primary screen NINDS Rhodamine qHTS for Zika virus inhibitors (AID 1347160); settings: purified NS2B-NS3 protease, Rhodamine110 substrate fluorescence; series mostly up to 33.1 µM; note: nearly all actives have a fitted effect of over 55% in size
Inconclusive results are not listed. The source made the active and inactive calls. Calls come from the whole dose curve; as a rule, active = well fitted inhibition curve with a large enough effect; inconclusive = small, poorly fitted or top-dose-only effect; inactive = no such curve, though single readings can be large or run the other way.
property_name: outcome

Study these solved cases before continuing.
COc1cccc(C(=O)NCCNc2nc3cc(C)cc(C)c3cc2C#N)c1	inactive
CC(=O)OC1CC(C(C)(C)O)OC2CCC3(C)OC4=C(C(=O)C=C5C(C)C(OC(C)=O)C6(C)C(C)OC546)C(O)C3C12C (configuration not stated)	inactive
C[C@]12CCC[C@](C)(C(=O)O)C1CCC13CC(CO)C(CCC12)C3 (some centres not stated)	inactive
O=C(Nc1cc(-c2ccccc2)nn1-c1ccccc1)c1ccc([N+](=O)[O-])cc1	inactive
CC(C)=C1CC2[C@](C)(CC[C@@H](OC(=O)C3(C)OC3C)[C@@]2(C)O)CC1=O (some centres not stated)	inactive
CC(=O)O[C@@H]1C(=O)C(C)=C(CCC(C)CC(=O)O)[C@@]2(C)CCCC(C)(C)C12 (some centres not stated)	inactive

The record that follows has no outcome shown yet.
Using known records, supply outcome for `C/C=C(\C)C(=O)OC[C@H]1O[C@@H](O[C@H]2[C@@H](O[C@H]3O[C@H](COC(=O)/C(C)=C/C)[C@@H](O)[C@H](O)[C@H]3O[C@@H]3O[C@H](CO)[C@@H](O)[C@H](OC(=O)/C(C)=C/C)[C@H]3O)O[C@H](COC(=O)/C(C)=C/C)[C@@H](O)[C@@H]2O)[C@H](O)[C@@H](O)[C@@H]1O`
inactive
